- experimental_system: HLA-A*31:01
- protocol_notes: IEDB peptide-MHC binding, purified MHC/competitive/radioactivity; bounds were set here for any values at or beyond the usual limits of such assays
- test_context: source organism: Homo sapiens
pIC50: −log10 of the molar value.
measurement_label: pIC50

>>> result("LALEGSLQKR")
4.42
>>> result("PLALEGSLQ")
4.40

* * *

- experimental_system: HLA-A*33:01
- protocol_notes: IEDB peptide-MHC binding, purified MHC/competitive/radioactivity; bounds were set here for any values at or beyond the usual limits of such assays
- test_context: source organism: Mus musculus
measurement_label: IC50 (µM)

>>> result("AINSEMFLR")
1.08
>>> result("TLALEVARQK")
25.5
>>> result("LALEVARQKR")
9.14

Cited source: the Immune Epitope Database (IEDB)
